Experiment: self-splicing fitness, log relative to wild type (ln ratio); higher = more splicing; Tetrahymena group I intron in knt gene, E. coli kanamycin selection, DiMSum; sequences stand for … in CUCUCU…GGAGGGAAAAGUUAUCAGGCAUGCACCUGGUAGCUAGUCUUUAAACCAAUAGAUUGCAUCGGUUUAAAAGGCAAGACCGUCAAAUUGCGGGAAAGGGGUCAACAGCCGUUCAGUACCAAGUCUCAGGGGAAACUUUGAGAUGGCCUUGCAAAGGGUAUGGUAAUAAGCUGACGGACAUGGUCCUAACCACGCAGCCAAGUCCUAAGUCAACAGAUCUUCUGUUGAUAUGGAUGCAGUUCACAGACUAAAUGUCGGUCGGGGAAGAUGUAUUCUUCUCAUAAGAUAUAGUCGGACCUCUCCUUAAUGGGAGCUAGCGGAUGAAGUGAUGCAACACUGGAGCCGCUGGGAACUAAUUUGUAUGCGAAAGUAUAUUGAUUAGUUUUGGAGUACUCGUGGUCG;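 further: selection with 25 µg/mL kanamycin versus none on LB agar overnight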
Conditions: 37 °C
Assign class by self-splicing fitness (ln): not lower than -0.6 means true (1); lower than -0.6 means false (0).

Request: Threshold query (self-splicing fitness (ln) >= -0.6) on `GCUUAGCAAUAUUACGGGAG`
Response: false (0)

Request: Could you tell me if the measured self-splicing fitness (ln) of `CUUAAGCAAUAUUACGGAGG` reaches -0.6 or more?
Response: false (0)

Request: Hi team, for `ACGGAGCAAUAUUACGAUCU` , is the recorded self-splicing fitness (ln) at or above -0.6?
Response: false (0)

Request: State whether the measured self-splicing fitness (ln) reaches -0.6, counting equality as reaching it, for `GCUUAGCAAUAUUACGCCCG`
Response: true (1)

Request: Decide: is the reported value of self-splicing fitness (ln) for `GCCGAGCAAUAUUACGUCAU` equal to or greater than -0.6?
Response: false (0)

Request: Could you please find out whether `CCAUAGCAAUAUUACGGCCA` has self-splicing fitness (ln) that meets -0.6 or exceeds it?
Response: false (0)

Request: Does the sequence `GUCAAGCAAUAUUACGAACG` have recorded self-splicing fitness (ln) that is -0.6 or more?
Response: false (0)

Request: In plain terms: is recorded self-splicing fitness (ln) at least -0.6 for `AUACAGCAAUAUUACGCCCG` ?
Response: false (0)

Request: Could you verify whether the entry `GACCAGCAAUAUUACGGGAU` shows self-splicing fitness (ln) of no less than -0.6?
Response: true (1)

Request: Answer whether self-splicing fitness (ln) of `UUAAAGCAAUAUUACGAAUC` is greater than or equal to -0.6.
Response: false (0)

Request: Has `UUUAAGCAAUAUUACGUUAC` a recorded self-splicing fitness (ln) greater than or equal to -0.6?
Response: false (0)

Request: Could you please find out whether `UCGUAGCAAUAUUACGAGUA` has self-splicing fitness (ln) that meets -0.6 or exceeds it?
Response: false (0)

Request: Record `GGCGAGCAAUAUUACGACCG` ; criterion: self-splicing fitness (ln) no lower than -0.6. Met?
Response: true (1)

Request: Does `ACUGAGCAAUAUUACGACAA` have a reported self-splicing fitness (ln) of at least -0.6?
Response: false (0)

Request: Confirm if self-splicing fitness (ln) reported for the sequence `GUGAAGCAAUAUUACGUCGC` is -0.6 or above.
Response: false (0)

Request: Record `UGACAGCAAUAUUACGUUCG` ; criterion: self-splicing fitness (ln) no lower than -0.6. Met?
Response: true (1)

These measurements were taken from the supplement of paper PMC7877785.
